# Target entity: UniProtKB Q15858
# Assay remarks: Nav 1.7 IWQ in vitro assay (IonWorks Quattro population patch-clamp)
# Assay type: cell-based
# Condition notes: 293 cells stably transfected with Nav 1.7; second part of table; read-out: Nav1.7 IWQ IC50 IP
Decision: IC50 beneath 500 nM gives T; IC50 meeting or exceeding 500 nM gives F.

// known answers, use as guide
INSERT INTO measurements (compound, assigned_label) VALUES
  ('COc1cc(C#N)ccc1-c1nncc2cc(S(=O)(=O)Nc3nccs3)ccc12 [Example 251]', 'T'),
  ('CC1CCCN1c1cccc2cc(S(=O)(=O)Nc3ncns3)ccc12 (centres unmarked) [Example 91]', 'T'),
  ('O=S(=O)(Nc1ccncn1)c1ccc2c(OCc3cccc4[nH]ncc34)nccc2c1 [Example 136]', 'F'),
  ('COc1cc(C(F)(F)F)ccc1-c1nccc2cc(S(=O)(=O)Nc3ncc(C#N)s3)ccc12 [Example 197]', 'F'),
  ('COc1cc(C(F)(F)F)ccc1-c1ncnc2cc(S(=O)(=O)Nc3ccncn3)ccc12 [Example 262]', 'T'),
  ('COc1cc(C(F)(F)F)ccc1-c1ncc(C#N)c2cc(S(=O)(=O)Nc3ccncn3)ccc12 [Example 242]', 'F'),
  ('O=S(=O)(Nc1ccncn1)c1ccc2c(OCc3cccnc3)nccc2c1 [Example 128]', 'F'),
  ('COc1cc2cc(S(=O)(=O)Nc3nccs3)ccc2c(-c2ccc(C(F)(F)F)cc2OC)n1 [Example 221]', 'T');

Task: Below 500 nM on IC50? Entry O=S(=O)(Nc1ccncn1)c1ccc2c(-c3ccccc3OCC(F)(F)F)nccc2c1 [Example 174]
Output: F

Task: And what about the compound O=S(=O)(Nc1nccs1)c1ccc2c(C3CCCN3Cc3ccccc3)cccc2c1 (centres unmarked) [Example 98] ?
Output: F

Task: And what about the compound COc1cc(C#N)ccc1-c1ncc(F)c2cc(S(=O)(=O)Nc3nccs3)ccc12 [Example 214] ?
Output: T

Task: And what about the compound O=S(=O)(Nc1nccs1)c1ccc2c([C@H]3CCCN3C3CCOCC3)cccc2c1 [Example 104] ?
Output: T

Task: And what about the compound O=S(=O)(Nc1ccncn1)c1ccc2c(OCc3cc4n(n3)CCCO4)nccc2c1 [Example 297] ?
Output: F

Task: And what about the compound Cn1cncc1-c1cc(C(F)(F)F)ccc1-c1cccc2cc(S(=O)(=O)Nc3ncc(F)s3)ccc12 [Example 110] ?
Output: T

Task: And what about the compound COc1cc(F)ccc1-c1nccc2cc(S(=O)(=O)Nc3ccncn3)ccc12 [Example 167] ?
Output: T

Task: And what about the compound COc1cc(C(F)(F)F)ccc1-c1c(C#N)cnc2cc(S(=O)(=O)Nc3nccs3)ccc12 [Example 284] ?
Output: T

###

Would you mind telling me the reported IC50 of each entry?
# Target entity: UniProt:Q14524
# Sequence (Q14524 whole entry): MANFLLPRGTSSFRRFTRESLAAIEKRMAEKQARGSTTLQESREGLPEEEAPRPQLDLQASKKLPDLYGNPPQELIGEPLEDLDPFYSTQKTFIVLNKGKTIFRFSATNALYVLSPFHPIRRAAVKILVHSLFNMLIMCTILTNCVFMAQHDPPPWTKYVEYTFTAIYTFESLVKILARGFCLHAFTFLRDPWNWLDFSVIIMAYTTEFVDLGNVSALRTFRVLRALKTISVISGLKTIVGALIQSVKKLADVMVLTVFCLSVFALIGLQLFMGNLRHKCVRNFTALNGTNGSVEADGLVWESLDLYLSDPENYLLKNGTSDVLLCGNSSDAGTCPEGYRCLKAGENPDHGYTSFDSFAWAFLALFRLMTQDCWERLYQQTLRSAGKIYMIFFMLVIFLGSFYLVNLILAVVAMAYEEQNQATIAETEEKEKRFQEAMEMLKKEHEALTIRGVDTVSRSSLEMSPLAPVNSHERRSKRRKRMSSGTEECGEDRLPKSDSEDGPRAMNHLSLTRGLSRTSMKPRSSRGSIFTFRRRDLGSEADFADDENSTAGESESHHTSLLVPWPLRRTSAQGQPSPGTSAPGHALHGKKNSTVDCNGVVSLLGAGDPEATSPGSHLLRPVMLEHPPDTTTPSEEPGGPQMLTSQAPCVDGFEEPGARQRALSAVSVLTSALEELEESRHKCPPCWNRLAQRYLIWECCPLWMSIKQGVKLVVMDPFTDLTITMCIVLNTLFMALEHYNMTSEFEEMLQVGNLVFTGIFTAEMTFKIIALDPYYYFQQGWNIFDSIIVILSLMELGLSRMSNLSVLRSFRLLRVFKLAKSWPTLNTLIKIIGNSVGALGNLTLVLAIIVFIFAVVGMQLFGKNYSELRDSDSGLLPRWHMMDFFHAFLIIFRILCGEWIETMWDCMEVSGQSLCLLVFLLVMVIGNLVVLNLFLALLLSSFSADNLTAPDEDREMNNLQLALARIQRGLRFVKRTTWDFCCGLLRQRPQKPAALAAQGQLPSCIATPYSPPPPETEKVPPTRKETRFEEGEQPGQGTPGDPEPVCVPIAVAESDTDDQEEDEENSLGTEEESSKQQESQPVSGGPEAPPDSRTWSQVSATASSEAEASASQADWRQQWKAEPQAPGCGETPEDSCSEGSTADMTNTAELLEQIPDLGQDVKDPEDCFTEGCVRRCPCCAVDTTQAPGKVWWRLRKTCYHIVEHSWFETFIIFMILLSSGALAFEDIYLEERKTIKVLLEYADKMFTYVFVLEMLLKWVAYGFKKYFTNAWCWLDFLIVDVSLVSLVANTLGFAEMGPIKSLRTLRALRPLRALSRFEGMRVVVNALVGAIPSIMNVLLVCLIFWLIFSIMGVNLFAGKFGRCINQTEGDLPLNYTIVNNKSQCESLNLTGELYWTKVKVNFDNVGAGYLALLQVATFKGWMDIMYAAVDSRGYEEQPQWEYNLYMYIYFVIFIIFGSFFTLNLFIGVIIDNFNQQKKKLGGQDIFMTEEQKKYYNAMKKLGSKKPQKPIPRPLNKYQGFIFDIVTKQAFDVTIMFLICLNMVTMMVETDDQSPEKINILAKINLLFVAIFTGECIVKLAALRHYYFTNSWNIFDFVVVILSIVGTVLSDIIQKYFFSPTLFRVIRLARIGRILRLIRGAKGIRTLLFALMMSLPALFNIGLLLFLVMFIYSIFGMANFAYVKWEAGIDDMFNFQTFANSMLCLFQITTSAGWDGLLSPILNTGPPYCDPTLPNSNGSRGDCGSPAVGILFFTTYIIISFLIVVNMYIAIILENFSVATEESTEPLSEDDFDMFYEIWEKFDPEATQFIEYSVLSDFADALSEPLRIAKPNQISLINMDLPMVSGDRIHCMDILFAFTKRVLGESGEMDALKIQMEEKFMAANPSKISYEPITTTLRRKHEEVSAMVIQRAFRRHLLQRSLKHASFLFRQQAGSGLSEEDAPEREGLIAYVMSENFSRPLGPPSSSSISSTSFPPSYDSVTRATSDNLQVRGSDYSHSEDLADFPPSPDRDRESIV
# Assay remarks: Nav 1.5 in vitro PX assay (PatchXpress whole cell voltage clamp)
# Type: cell-based
# Condition notes: 293 cells stably transfected with Nav 1.5; second part of table; read-out: Nav1.5 PX IC50

Solved entries:
INSERT INTO assay_data (compound, measured_result) VALUES
  ('COc1cc(Cl)c(Cl)cc1-c1nccc2cc(S(=O)(=O)Nc3nccs3)ccc12 [Example 177]', '> 30 µM'),
  ('COc1cc(-c2cc(C)cc(Cl)c2)ccc1-c1nccc2cc(S(=O)(=O)Nc3ccncn3)ccc12 [Example 495]', '19.1 µM'),
  ('COc1ccc(-c2cccc(C(F)(F)F)c2)cc1-c1nccc2cc(S(=O)(=O)Nc3ccncn3)ccc12 [Example 349]', '> 30 µM'),
  ('COc1cc(-c2cc(F)cc(F)c2)ccc1-c1nccc2cc(S(=O)(=O)Nc3ccnc(C)n3)ccc12 [Example 370]', '> 30 µM');

Could I get IC50 for every one of these entries?
1. COc1ccc(-c2cccc(C(F)(F)F)c2)cc1-c1nccc2cc(S(=O)(=O)Nc3nncs3)ccc12 [Example 344]
2. COc1cc(C(F)F)c(Cl)cc1-c1ncnc2cc(S(=O)(=O)Nc3nccs3)ccc12 [Example 270]
3. COc1cc(-c2cccc(C(F)(F)F)c2)c(C#N)cc1-c1nccc2cc(S(=O)(=O)Nc3nncs3)ccc12 [Example 339]

Output:
["> 30 µM", "7.44 µM", "> 30 µM"]

###

# Target entity: Nav 1.7 (Homo sapiens (Human), UniProt Q15858)
# Sequence (Q15858 whole entry): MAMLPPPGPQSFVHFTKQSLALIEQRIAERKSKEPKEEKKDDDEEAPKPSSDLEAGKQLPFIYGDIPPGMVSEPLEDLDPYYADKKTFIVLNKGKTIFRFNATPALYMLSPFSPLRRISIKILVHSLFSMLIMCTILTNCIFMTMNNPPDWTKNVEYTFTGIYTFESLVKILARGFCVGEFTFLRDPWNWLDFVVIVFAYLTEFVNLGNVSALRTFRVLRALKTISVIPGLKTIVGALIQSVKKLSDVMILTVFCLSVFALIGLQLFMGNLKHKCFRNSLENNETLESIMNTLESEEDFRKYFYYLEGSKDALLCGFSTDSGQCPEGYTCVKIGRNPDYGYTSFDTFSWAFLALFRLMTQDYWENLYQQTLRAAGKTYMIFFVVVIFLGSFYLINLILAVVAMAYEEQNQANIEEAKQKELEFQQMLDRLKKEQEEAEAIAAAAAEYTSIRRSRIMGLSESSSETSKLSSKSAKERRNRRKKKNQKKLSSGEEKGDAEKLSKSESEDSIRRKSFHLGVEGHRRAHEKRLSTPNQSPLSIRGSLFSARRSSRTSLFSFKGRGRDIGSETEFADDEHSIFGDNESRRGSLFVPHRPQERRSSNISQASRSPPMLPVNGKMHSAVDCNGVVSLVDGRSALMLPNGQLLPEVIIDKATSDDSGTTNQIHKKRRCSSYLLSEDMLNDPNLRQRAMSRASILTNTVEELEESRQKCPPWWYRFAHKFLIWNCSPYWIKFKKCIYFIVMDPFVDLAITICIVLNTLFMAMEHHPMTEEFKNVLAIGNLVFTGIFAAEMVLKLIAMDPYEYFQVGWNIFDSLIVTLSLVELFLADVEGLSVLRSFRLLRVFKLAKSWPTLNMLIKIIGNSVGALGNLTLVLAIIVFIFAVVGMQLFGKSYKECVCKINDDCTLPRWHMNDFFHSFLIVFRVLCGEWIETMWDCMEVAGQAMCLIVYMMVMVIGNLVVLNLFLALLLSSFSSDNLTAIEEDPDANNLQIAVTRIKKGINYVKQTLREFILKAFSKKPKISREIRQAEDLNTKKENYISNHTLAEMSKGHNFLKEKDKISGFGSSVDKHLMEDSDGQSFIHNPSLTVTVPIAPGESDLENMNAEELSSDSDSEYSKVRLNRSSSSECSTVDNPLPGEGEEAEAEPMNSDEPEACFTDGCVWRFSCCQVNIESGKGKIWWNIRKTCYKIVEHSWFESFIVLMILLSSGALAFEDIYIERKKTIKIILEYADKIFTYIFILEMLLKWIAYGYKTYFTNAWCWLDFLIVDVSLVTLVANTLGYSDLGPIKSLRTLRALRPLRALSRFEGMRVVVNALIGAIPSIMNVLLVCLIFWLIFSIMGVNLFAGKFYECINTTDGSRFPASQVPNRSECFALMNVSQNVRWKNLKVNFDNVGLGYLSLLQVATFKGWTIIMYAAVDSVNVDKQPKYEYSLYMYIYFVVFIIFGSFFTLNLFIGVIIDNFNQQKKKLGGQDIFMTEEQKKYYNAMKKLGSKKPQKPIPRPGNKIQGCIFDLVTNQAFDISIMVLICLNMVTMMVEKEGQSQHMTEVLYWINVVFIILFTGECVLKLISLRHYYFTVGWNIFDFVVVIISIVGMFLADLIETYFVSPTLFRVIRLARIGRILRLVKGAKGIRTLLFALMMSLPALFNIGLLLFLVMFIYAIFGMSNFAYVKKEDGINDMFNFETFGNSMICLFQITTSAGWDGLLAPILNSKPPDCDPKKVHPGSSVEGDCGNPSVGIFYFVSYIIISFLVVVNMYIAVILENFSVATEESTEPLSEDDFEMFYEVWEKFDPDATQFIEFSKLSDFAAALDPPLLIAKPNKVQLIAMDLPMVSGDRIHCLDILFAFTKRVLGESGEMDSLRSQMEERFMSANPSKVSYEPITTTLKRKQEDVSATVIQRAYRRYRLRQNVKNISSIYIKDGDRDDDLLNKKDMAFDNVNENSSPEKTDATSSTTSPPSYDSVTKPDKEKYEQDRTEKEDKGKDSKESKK
# Assay remarks: Nav 1.7 IWQ in vitro assay (IonWorks Quattro population patch-clamp)
# Type: cell-based
# Condition notes: 293 cells stably transfected with Nav 1.7; second part of table; read-out: Nav1.7 IWQ IC50 IP
Measure name: IC50 (µM)
Numbers only, in µM.

INSERT INTO assay_data (compound, measured_result) VALUES
  ('COc1cc(Cl)ccc1-c1ncc(F)c2cc(S(=O)(=O)Nc3nccs3)ccc12', 0.02),
  ('COc1ccc(C(F)(F)F)cc1-c1nccc2cc(S(=O)(=O)Nc3ccncn3)ccc12', 0.01),
  ('COc1cc(C(F)(F)F)ccc1-c1nncc2cc(S(=O)(=O)Nc3ncc(F)s3)ccc12', 0.02),
  ('Cn1ccnc1-c1cc(C(F)(F)F)ccc1-c1cccc2cc(S(=O)(=O)Nc3ncc(F)s3)ccc12', 0.06),
  ('CS(=O)(=O)c1cc(C(F)(F)F)ccc1-c1cccc2cc(S(=O)(=O)Nc3ccncn3)ccc12', 0.18);

Could I get IC50 for every one of these entries?
1. O=S(=O)(Nc1ccncn1)c1ccc2c(-c3ccc(C(F)(F)F)cc3)nccc2c1
2. COc1cc(C(F)(F)F)ccc1-c1nccc2cc(S(=O)(=O)Nc3nncs3)ccc12
3. COc1cc(C(F)(F)F)ccc1-c1nccc2cc(S(=O)(=O)Nc3ncc(F)s3)ccc12 [Example 198, 2,2,2-TRIFLUOROACETATE]
4. O=S(=O)(Nc1nccs1)c1ccc2c(-c3ccc(C(F)(F)F)cc3-n3ccnc3)nccc2c1
5. COc1cc(C(F)(F)F)ccc1-c1nccc2cc(S(=O)(=O)Nc3ncncc3F)ccc12

Output:
1. 2.3
2. 0.32
3. 0.04
4. 0.01
5. 0.67

Could I get IC50 for every one of these entries?
1. COc1ccccc1-c1cccc2cc(S(=O)(=O)Nc3ncns3)ccc12
2. O=S(=O)(Nc1nccs1)c1ccc2c(N3CCC[C@H]3c3ccccc3)nccc2c1
3. Cn1ccnc1-c1cc(C(F)(F)F)ccc1-c1cccc2cc(S(=O)(=O)Nc3ccncn3)ccc12
4. COc1ccccc1-c1nncc2cc(S(=O)(=O)Nc3ncc(F)s3)ccc12
5. COc1cc(C(F)(F)F)ccc1-c1ncnc2cc(S(=O)(=O)Nc3ncns3)ccc12
6. Cc1cc(C#N)ccc1-c1nccc2cc(S(=O)(=O)Nc3nccs3)ccc12 [Example 210, 2,2,2-TRIFLUOROACETATE]
7. COc1cc(C(F)(F)F)ccc1-c1ncnc2cc(S(=O)(=O)Nc3nncs3)ccc12
8. COc1cc(C(F)(F)F)ccc1-c1ncnc2cc(S(=O)(=O)Nc3ncc(F)s3)ccc12

Output:
1: 0.01; 2: 1.45; 3: 0.06; 4: 0.26; 5: 0.02; 6: 0.14; 7: 1.1; 8: 0.01

###

# Target entity: Nav 1.7 (Homo sapiens (Human))
# Assay remarks: Nav 1.7 in vitro PX assay (PatchXpress whole cell voltage clamp)
# Type: cell-based
# Condition notes: 293 cells, human Nav1.7, partially inactivated state; read-out: Nav1.7 PX IC50 IP
Structures can show the parent of a compound that is named as a salt.
Measure name: pIC50
One number for each entry, as −log10 of the molar value.

Solved entries:
INSERT INTO results (compound, measured_result) VALUES
  ('COc1cc(-c2cccc(F)c2)ccc1-c1nccc2cc(S(=O)(=O)Nc3nccs3)ccc12 [Example 202, 2,2,2-TRIFLUOROACETATE]', 6.29),
  ('CCOc1ccccc1-c1nccc2cc(S(=O)(=O)Nc3ccncn3)ccc12', 5.06),
  ('COc1ccccc1-c1nncc2cc(S(=O)(=O)Nc3ncc(F)s3)ccc12', 5.98),
  ('Cc1cc(Cl)ccc1-c1ccnc2cc(S(=O)(=O)Nc3ncns3)ccc12', 6.48),
  ('COc1cc(C(F)(F)F)ccc1-c1cncc2cc(S(=O)(=O)Nc3ccncn3)ccc12 [Example 285, HYDROCHLORIDE]', 6.24),
  ('Cc1cc(C#N)ccc1-c1ncnc2cc(S(=O)(=O)Nc3nccs3)ccc12', 5.30),
  ('COc1ccc(OC(F)(F)F)cc1-c1nccc2cc(S(=O)(=O)Nc3ccncn3)ccc12', 5.99),
  ('COc1cc(C(F)F)c(F)cc1-c1nc(C)nc2cc(S(=O)(=O)Nc3nccs3)ccc12', 6.42),
  ('O=S(=O)(Nc1nccs1)c1ccc2c(-c3ccc(C(F)(F)F)cc3Br)nccc2c1', 6.82),
  ('COc1cc(C(F)(F)F)ccc1-c1nccc2cc(S(=O)(=O)Nc3nccs3)cnc12', 5.60);

Could I get pIC50 for every one of these entries?
1. COc1ccccc1-c1ncc(C#N)c2cc(S(=O)(=O)Nc3nccs3)ccc12
2. O=S(=O)(Nc1ccncn1)c1ccc2c(-c3ccc(C(F)(F)F)cc3)nccc2c1
3. O=S(=O)(Nc1nccs1)c1ccc2c(-c3ccc(C(F)(F)F)cc3Cl)ccnc2c1

Output:
5.88
4.53
5.69

Could I get pIC50 for every one of these entries?
1. COc1cc(-c2cccc(C)c2)ccc1-c1nccc2cc(S(=O)(=O)Nc3ccncn3)ccc12
2. CN1CCC=C(c2cc(C(F)(F)F)ccc2-c2cccc3cc(S(=O)(=O)Nc4ccncn4)ccc23)C1

Output:
1: 7.06; 2: 6.31

Task: What value of pIC50 has been reported for the following compound? COc1cc(-c2ccc(C)nc2)ccc1-c1nccc2cc(S(=O)(=O)Nc3ccncn3)ccc12
Output: 5.39
